Listed molecules paired with reported EC50
System: human fibrosarcoma cell line HT-1080
assay procedure: HT-1080 cell proliferation assay (CellTiter-Glo, 72 hours)
Type: cell-based
measurement context: HT-1080, 72 h, read-out: HT-1080 EC50 (nM)
Counter-ions that a name gives are not always drawn.
observable: EC50

{"molecule": "CCN(CC)CCNC(=O)CCC1CN(C(=O)O[C@@H]2CC[C@]3(CO3)[C@@H]([C@@]3(C)O[C@@H]3CC=C(C)C)[C@@H]2OC)C1 [Example 88, formate]", "result": "0.3 to 1.3 nM"}
{"molecule": "CO[C@@H]1[C@H](OC(=O)N2CC(CCN3CC4C(C3)C4(F)F)C2)CC[C@]2(CO2)[C@H]1[C@@]1(C)O[C@@H]1CC=C(C)C (stereo partly shown) [Example 22, formate]", "result": "0.3 to 1.3 nM"}
{"molecule": "CO[C@@H]1[C@H](OC(=O)N2CC(CCN3CC(O)C3)C2)CC[C@]2(CO2)[C@H]1[C@@]1(C)O[C@@H]1CC=C(C)C [Example 6, formate]", "result": "< 0.3 nM"}
{"molecule": "CO[C@@H]1[C@H](OC(=O)N2CC(CCN3CC(C)(O)C3)C2)CC[C@]2(CO2)[C@H]1[C@@]1(C)O[C@@H]1CC=C(C)C [Example 9, formate]", "result": "< 0.3 nM"}

Data origin, for the record: patent US10023561B2
